# assay details: Cytotoxicity against human Raji cells assessed as cell viability at 5000 mol ratio after 48 hrs relative to TPA
# Format: cell-based
# condition description: read-out: Activity
readout label: viability at 48 h, 5000 mol ratio relative to TPA (%)
Value expressed in %; do not type the unit.

Would you kindly share the measured viability at 48 h, 5000 mol ratio relative to TPA for CC(=O)OC[C@]12CCC(C)(C)C[C@H]1C1=CC[C@@H]3[C@@]4(C)CC[C@H](OC(C)=O)C(C)(C)[C@@H]4CC[C@@]3(C)[C@]1(C)CC2 ?
50

Would you kindly share the measured viability at 48 h, 5000 mol ratio relative to TPA for C=C(C)[C@@H]1CC[C@]2(C)CC[C@]3(C)[C@H](CC[C@@H]4[C@@]5(C)CC[C@H](OC(C)=O)C(C)(C)[C@@H]5CC[C@]43C)[C@@H]12 [LUPENYL ACETATE] ?
60

Would you kindly share the measured viability at 48 h, 5000 mol ratio relative to TPA for C=C(C)[C@@H]1CC[C@]2(C(=O)O)CC[C@]3(C)[C@H](CC[C@@H]4[C@@]5(C)CC[C@H](O)C(C)(C)[C@@H]5CC[C@]43C)[C@@H]12 [BETULINIC ACID] ?
20

Would you kindly share the measured viability at 48 h, 5000 mol ratio relative to TPA for C=C(C)[C@@H]1CC[C@]2(C(=O)O)CC[C@]3(C)[C@H](CC[C@@H]4[C@@]5(C)CC[C@H](OC(C)=O)C(C)(C)[C@@H]5CC[C@]43C)[C@@H]12 ?
80

Would you kindly share the measured viability at 48 h, 5000 mol ratio relative to TPA for CC1(C)CC[C@]2(CO)CC[C@]3(C)C(=CC[C@@H]4[C@@]5(C)CC[C@H](O)C(C)(C)[C@@H]5CC[C@]43C)[C@@H]2C1 [ERYTHRODIOL] ?
10

Would you kindly share the measured viability at 48 h, 5000 mol ratio relative to TPA for CC(=O)O[C@H]1CC[C@]2(C)[C@H]3CC=C4[C@@H]5CC(C)(C)CC[C@]5(C(=O)O)CC[C@@]4(C)[C@]3(C)CC[C@H]2C1(C)C [ACETYL OLEANOLIC ACID] ?
50

Would you kindly share the measured viability at 48 h, 5000 mol ratio relative to TPA for CC1(C)CC[C@]2(C)CC[C@]3(C)C(=CC[C@@H]4[C@@]5(C)C(=O)CC(=O)C(C)(C)[C@@H]5CC[C@]43C)[C@@H]2C1 ?
0

Would you kindly share the measured viability at 48 h, 5000 mol ratio relative to TPA for C=C(C)[C@@H]1CC[C@]2(C(=O)OC)CC[C@]3(C)[C@H](CC[C@@H]4[C@@]5(C)CC[C@H](O)C(C)(C)[C@@H]5CC[C@]43C)[C@@H]12 [METHYL BETULINATE] ?
80

Would you kindly share the measured viability at 48 h, 5000 mol ratio relative to TPA for CC1(C)CC[C@]2(C(=O)O)CC[C@]3(C)C(=CC[C@@H]4[C@@]5(C)CC[C@H](O)C(C)(C)[C@@H]5CC[C@]43C)[C@@H]2C1 [OLEANOLIC_ACID] ?
20

Would you kindly share the measured viability at 48 h, 5000 mol ratio relative to TPA for COC(=O)[C@]12CCC(C)(C)C[C@H]1C1=CC[C@@H]3[C@@]4(C)C[C@@H](O)[C@H](O)C(C)(C)[C@@H]4CC[C@@]3(C)[C@]1(C)CC2 [MASLINIC ACID METHYL ESTER] ?
0

Would you kindly share the measured viability at 48 h, 5000 mol ratio relative to TPA for C=C(C)[C@@H]1CC[C@]2(CO)CC[C@]3(C)[C@H](CC[C@@H]4[C@@]5(C)CC[C@H](O)C(C)(C)[C@@H]5CC[C@]43C)[C@@H]12 [BETULIN] ?
80
